IC50 values by entry
target: Poly [ADP-ribose] polymerase 2 (Mus musculus, UniProt O88554)
Sequence (O88554 whole entry): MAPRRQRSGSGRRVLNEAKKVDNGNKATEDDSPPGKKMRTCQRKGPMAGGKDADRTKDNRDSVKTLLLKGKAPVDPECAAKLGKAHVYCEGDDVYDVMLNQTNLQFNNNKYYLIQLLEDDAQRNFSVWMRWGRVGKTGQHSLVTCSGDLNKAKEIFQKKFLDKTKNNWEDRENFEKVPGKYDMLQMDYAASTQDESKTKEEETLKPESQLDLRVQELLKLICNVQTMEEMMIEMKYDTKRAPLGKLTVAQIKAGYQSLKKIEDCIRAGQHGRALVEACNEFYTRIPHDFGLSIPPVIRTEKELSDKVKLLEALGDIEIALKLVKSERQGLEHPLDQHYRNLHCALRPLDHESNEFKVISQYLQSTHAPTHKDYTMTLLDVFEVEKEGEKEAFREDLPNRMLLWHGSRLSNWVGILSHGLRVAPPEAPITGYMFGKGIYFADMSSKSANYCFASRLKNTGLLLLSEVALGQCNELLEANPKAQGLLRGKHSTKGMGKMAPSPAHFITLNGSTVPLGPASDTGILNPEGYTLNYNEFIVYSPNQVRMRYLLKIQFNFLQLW
Could you give me the number in nM? Just the number is fine.

Look over these answered cases.
Any idea what IC50 came out for NC(=O)c1cccc2ncc(-c3ccccc3)nc12 [3-phenylquinoxaline-5-carboxamide] on Poly [ADP-ribose] polymerase 2 (Mus musculus, UniProt O88554)?
14

Any idea what IC50 came out for O=c1[nH]c(=O)n(CCCCN2CC=C(c3ccccc3)CC2)c2ccccc12 on Poly [ADP-ribose] polymerase 2 (Mus musculus, UniProt O88554)?
70

Any idea what IC50 came out for N#Cc1ccc(C2=CCN(CCCc3nc4c(Cl)cccc4c(=O)[nH]3)CC2)cc1 on Poly [ADP-ribose] polymerase 2 (Mus musculus, UniProt O88554)?
87

Any idea what IC50 came out for O=c1[nH]nc(CCCCN2CC=C(c3ccc(F)cc3)CC2)c2ccccc12 on Poly [ADP-ribose] polymerase 2 (Mus musculus, UniProt O88554)?
84

Any idea what IC50 came out for O=c1[nH]c2ccc(CCCN3CC=C(c4ccccc4)CC3)cc2c2ccccc12 on Poly [ADP-ribose] polymerase 2 (Mus musculus, UniProt O88554)?
84

***
Any idea what IC50 came out for O=c1[nH]c(CCCN2CC=C(c3ccccc3)CC2)nc2ccccc12 on Poly [ADP-ribose] polymerase 2 (Mus musculus, UniProt O88554)?
608

Any idea what IC50 came out for O=c1[nH]c(CCCN2CC=C(c3ccccc3)CC2)nc2c(Cl)cccc12 on Poly [ADP-ribose] polymerase 2 (Mus musculus, UniProt O88554)?
610

Any idea what IC50 came out for NC(=O)c1cccc(N)c1 on Poly [ADP-ribose] polymerase 2 (Mus musculus, UniProt O88554)?
9810

Any idea what IC50 came out for O=c1[nH]c(CCCN2CC=C(c3ccc(F)cc3)CC2)nc2c(Cl)cccc12 on Poly [ADP-ribose] polymerase 2 (Mus musculus, UniProt O88554)?
500

Any idea what IC50 came out for Cc1cccc2c(=O)[nH]c(CCCN3CC=C(c4ccc(F)cc4)CC3)nc12 on Poly [ADP-ribose] polymerase 2 (Mus musculus, UniProt O88554)?
167

Value source: BindingDB's records for doi:10.1016/j.bmc.2005.09.061
